folding enthalpy by entry:
- measurement.description: folding enthalpy; higher = less favourable; fluorescence melt of hairpins on a sequencing array, two-state fit
- test.conditions: sodium 0.088 M
Numeric only. Scale: kcal/mol

Entry GGACAGAAATGTCC (((((....))))) : reported folding enthalpy = ?
-25.9

Entry GGCCCTCCGAAAGGAGCC (((..(((....)))))) : reported folding enthalpy = ?
-10.6

Entry GATCACCTCGGTGATC ((((((....)))))) : reported folding enthalpy = ?
-37.5

Entry GATCCTGGTGAGGATC ((((((....)))))) : reported folding enthalpy = ?
-42.1

Entry GACCTCGGAAACGGGGTC ((((.((....)).)))) : reported folding enthalpy = ?
-46.4

Entry GTCGTTGGAAACAACAAC ((.((((....)))).)) : reported folding enthalpy = ?
-17.7

Entry GGTGGCGAAAGCCTCACC ((((((....)))..))) : reported folding enthalpy = ?
-12.7

Entry GATCAAAGAGTTGATC ((((((....)))))) : reported folding enthalpy = ?
-21.3

Others:
Entry GCGAGGCTTCGC ((((....)))) : reported folding enthalpy = ?
-17.9

Entry GATCCTGGTAGGATC ((((((...)))))) : reported folding enthalpy = ?
-32.6

Entry GTGCGGGGAAACCCACAC (((.(((....))).))) : reported folding enthalpy = ?
-37.9

* * *

- measurement.description: folding enthalpy; higher = less favourable; fluorescence melt of hairpins on a sequencing array, two-state fit
- test.conditions: sodium 0.088 M
parameter: folding enthalpy
Answer with the value and then the unit.

Field: example entries. Status: answers known.
Entry GCGGTGTCCGC ((((...)))) : reported folding enthalpy = ?
-23 kcal/mol

Entry GGCGATCGAAAGATGCC (((.(((....)))))) : reported folding enthalpy = ?
-37.8 kcal/mol

Entry GGCCGCGAAAGCGCTGCC ((((((....)))..))) : reported folding enthalpy = ?
-18.6 kcal/mol

Entry GGTTGGCGAAAGCCACC (((.(((....)))))) : reported folding enthalpy = ?
-16.5 kcal/mol

Entry GTGCATGGAAACATGTAC ((.((((....)))).)) : reported folding enthalpy = ?
-31.7 kcal/mol

Entry GACCGTACGAAAGTAGTC (((..(((....)))))) : reported folding enthalpy = ?
-13.1 kcal/mol

Entry GCCAATGGAAACGTTGGC (((((.(....).))))) : reported folding enthalpy = ?
-49.3 kcal/mol

Entry GAGGATACGAAAGTACTC (((..(((....)))))) : reported folding enthalpy = ?
-9.94 kcal/mol

Others:
Entry GATCTCGCCGGAGATC ((((((....)))))) : reported folding enthalpy = ?
-35.5 kcal/mol

Entry GCGATCACTCGC ((((....)))) : reported folding enthalpy = ?
-26 kcal/mol

Entry GGAGGTCCGAAAGGATCC (((..(((....)))))) : reported folding enthalpy = ?
-12 kcal/mol

Entry GTGCAGGGAAACTTGCAC (((((.(....).))))) : reported folding enthalpy = ?
-40.7 kcal/mol

Entry GGGCTCGAAAGAGGACCC ((((((....)))..))) : reported folding enthalpy = ?
-20.9 kcal/mol

Entry GGGGACGAAAGTCACCC ((((((....))).))) : reported folding enthalpy = ?
-17.6 kcal/mol

Entry GTTCTACGAAAGTAAAC (((.(((....)))))) : reported folding enthalpy = ?
-10.8 kcal/mol

Entry GTGTTAGGAAACTAGCAC (((.(((....))).))) : reported folding enthalpy = ?
-31.2 kcal/mol

Entry GCAAGCGAAAGCTAATGC ((((((....)))..))) : reported folding enthalpy = ?
-15.5 kcal/mol

Entry GATCTAGTTATAGATC ((((((....)))))) : reported folding enthalpy = ?
-33.8 kcal/mol

Entry GGTTACGAAAGTAGAACC ((((((....)))..))) : reported folding enthalpy = ?
-18.2 kcal/mol

Entry GCGATTGGAAACAATCGC (((((((....))))))) : reported folding enthalpy = ?
-39.5 kcal/mol

Entry GCTCCCGAAAGGGAGAGC ((((((....)))..))) : reported folding enthalpy = ?
-11.8 kcal/mol

Entry GATCGAAGTCTCGATC ((((((....)))))) : reported folding enthalpy = ?
-35.1 kcal/mol

Entry GATCATTTCGATGATC ((((((....)))))) : reported folding enthalpy = ?
-41.6 kcal/mol

Entry GCTATTGCGAAAGCAAGC (((..(((....)))))) : reported folding enthalpy = ?
-10.2 kcal/mol

Entry GGTCTAACGAAAGTTACC (((..(((....)))))) : reported folding enthalpy = ?
-10.2 kcal/mol

Entry GTAATGTCGAAAGACTAC (((..(((....)))))) : reported folding enthalpy = ?
-11.7 kcal/mol

Entry GATCACGAAAGTGAAATC ((((((....)))..))) : reported folding enthalpy = ?
-10.7 kcal/mol

Entry GAGATCGGAAACGATCCC (.(((((....))))).) : reported folding enthalpy = ?
-12.9 kcal/mol

Entry GCGCCGCGAAAGCGCTGC ((..(((....)))..)) : reported folding enthalpy = ?
-15.6 kcal/mol
